Consider the following compounds and their measured viability, T/C readings.
test system: MDA-MB-468 spheroids with HUVEC/MSC, viability; experiment: Anticancer human tumor MDA-MB-468 cell line growth inhibition [PI3K]; settings: second compound 0.1 µM; first compound 3.16 µM; stronger effect = lower value;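 further: spheroids exposed to agents for seven days before readout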;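 on viability, T/C: 100% = DMSO vehicle control viability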
The response must be a number in % with no trailing unit.

Here is how some compounds turned out for viability, T/C.
COMPOUND	TGT	viability, T/C, %
C[C@@H](NC(=O)c1ncnc(N)c1Cl)c1ncc(C(=O)Nc2cc(C(F)(F)F)c(Cl)cn2)s1 + COc1c(OCCCN2CCOCC2)ccc2c3n(c(=NC(=O)c4cnc(N)nc4)nc12)CCN3	MDA-MB-468 spheroids with HUVEC/MSC, viability	59.9
C=CC(=O)N1CCN(c2nc(=O)n(-c3c(C)ccnc3C(C)C)c3nc(-c4c(O)cccc4F)c(F)cc23)C(C)C1 (stereo not given) + CC(Nc1ncnc2nc[nH]c12)c1cc2cccc(Cl)c2c(=O)n1-c1ccccc1	MDA-MB-468 spheroids with HUVEC/MSC, viability	91.1
CCCS(=O)(=O)Nc1ccc(F)c(C(=O)c2c[nH]c3ncc(-c4ccc(Cl)cc4)cc23)c1F + COc1c(OCCCN2CCOCC2)ccc2c3n(c(=NC(=O)c4cnc(N)nc4)nc12)CCN3	MDA-MB-468 spheroids with HUVEC/MSC, viability	45.2

Entry Cn1nccc1Nc1nccc(-c2ccn(C(CO)c3ccc(Cl)c(F)c3)c(=O)c2)n1 (stereo not given) + CC(Nc1ncnc2nc[nH]c12)c1cc2cccc(Cl)c2c(=O)n1-c1ccccc1 : reported viability, T/C = ?
83.8

Need viability, T/C of CC1(C)CCC(Nc2ncc(C(F)(F)F)c(-c3c[nH]c4c(P(C)(C)=O)c(C#N)ccc34)n2)CN1 (stereo not given) + COc1c(OCCCN2CCOCC2)ccc2c3n(c(=NC(=O)c4cnc(N)nc4)nc12)CCN3 , thanks.
6

###

test system: MDA-MB-468 spheroids with HUVEC/MSC, viability; assay: Anticancer human tumor MDA-MB-468 cell line growth inhibition [PI3K]; conditions: second compound 0.0316 µM; first compound 0.01 µM; stronger effect = lower value;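 further: spheroids exposed to agents for seven days before readout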;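 on viability, T/C: 100% = DMSO vehicle control viability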
viability, T/C under 80% gets 1 (yes), anything at or over 80% gets 0 (no).

Record excerpt, results attached:
COMPOUND	TGT	CLASS_NAME
CC(C)n1nc(-c2ccc3oc(N)nc3c2)c2c(N)ncnc21 + COc1c(OCCCN2CCOCC2)ccc2c3n(c(=NC(=O)c4cnc(N)nc4)nc12)CCN3	MDA-MB-468 spheroids with HUVEC/MSC, viability	1 (yes)
Cn1ncnc1[C@H]1c2n[nH]c(=O)c3cc(F)cc(c23)N[C@@H]1c1ccc(F)cc1 + Cc1nc(NC(=O)N2CCCC2C(N)=O)sc1-c1ccnc(C(C)(C)C(F)(F)F)c1	MDA-MB-468 spheroids with HUVEC/MSC, viability	0 (no)
CCN1CCN(Cc2ccc(Nc3ncc(F)c(-c4cc(F)c5nc(C)n(C(C)C)c5c4)n3)nc2)CC1 + Cc1nc(NC(=O)N2CCCC2C(N)=O)sc1-c1ccnc(C(C)(C)C(F)(F)F)c1	MDA-MB-468 spheroids with HUVEC/MSC, viability	0 (no)

Proceed to the following item.
Please state whether viability, T/C is below 80% for Cn1ncnc1[C@H]1c2n[nH]c(=O)c3cc(F)cc(c23)N[C@@H]1c1ccc(F)cc1 + CC(Nc1ccc2c(c1)OCCn1cc(N3C(=O)OCC3C(F)F)nc1-2)C(N)=O
0 (no)

###

tested on: MDA-MB-468 spheroids with HUVEC/MSC, viability; assay: Anticancer human tumor MDA-MB-468 cell line growth inhibition [PI3K]; conditions: curve of first compound; second compound 0.0316 µM;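 further: spheroids exposed to agents for seven days before readout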
Each item that follows carries a reported IC50.

Consider the worked cases shown below.
MOLECULE	IC50
C#Cc1c(F)ccc2cc(O)cc(-c3ncc4c(N5CC6CCC(C5)N6)nc(OCC56CCCN5CC(F)C6)nc4c3F)c12 (stereo not drawn) + Cc1nc(NC(=O)N2CCCC2C(N)=O)sc1-c1ccnc(C(C)(C)C(F)(F)F)c1	> 10 µM
CNC(=O)c1ccc(N2C(=S)N(c3ccc(C#N)c(C(F)(F)F)c3)C(=O)C2(C)C)cc1F + COc1c(OCCCN2CCOCC2)ccc2c3n(c(=NC(=O)c4cnc(N)nc4)nc12)CCN3	> 10 µM
CC(Cn1ccc(-c2ccc(C#N)c(Cl)c2)n1)NC(=O)c1cc(C(C)O)[nH]n1 (stereo not drawn) + Cc1nc(NC(=O)N2CCCC2C(N)=O)sc1-c1ccnc(C(C)(C)C(F)(F)F)c1	> 10 µM
C#Cc1c(F)ccc2cc(O)cc(-c3ncc4c(N5CC6CCC(C5)N6)nc(OCC56CCCN5CC(F)C6)nc4c3F)c12 (stereo not drawn) + CC(Nc1ccc2c(c1)OCCn1cc(N3C(=O)OCC3C(F)F)nc1-2)C(N)=O	8.92 µM
Cn1nccc1Nc1nccc(-c2ccn(C(CO)c3ccc(Cl)c(F)c3)c(=O)c2)n1 (stereo not drawn) + Cc1nc(NC(=O)N2CCCC2C(N)=O)sc1-c1ccnc(C(C)(C)C(F)(F)F)c1	> 10 µM

What IC50 value was documented for this molecule, Cn1ncc(Cl)c1-c1cc(C(=O)NC(CN)Cc2cccc(F)c2)sc1Cl (stereo not drawn) + COc1c(OCCCN2CCOCC2)ccc2c3n(c(=NC(=O)c4cnc(N)nc4)nc12)CCN3 ?
0.152 µM

Requested field: IC50. Item: CC(C)NCC(C(=O)N1CCN(c2ncnc3c2C(C)CC3O)CC1)c1ccc(Cl)cc1 (stereo not drawn) + COc1c(OCCCN2CCOCC2)ccc2c3n(c(=NC(=O)c4cnc(N)nc4)nc12)CCN3
0.711 µM

Please give the measured IC50 for this molecule: CC1(C)CCC(CN2CCN(c3ccc(C(=O)NS(=O)(=O)c4ccc(NCC5CCOCC5)c([N+](=O)[O-])c4)c(Oc4cnc5[nH]ccc5c4)c3)CC2)=C(c2ccc(Cl)cc2)C1 + COc1c(OCCCN2CCOCC2)ccc2c3n(c(=NC(=O)c4cnc(N)nc4)nc12)CCN3
> 10 µM

###

Entries and their viability, T/C values follow.
tested on: MDA-MB-468 spheroids with HUVEC/MSC, viability; experiment: Anticancer human tumor MDA-MB-468 cell line growth inhibition [PI3K]; conditions: second compound 0.316 µM; first compound 3.16 µM; stronger effect = lower value;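 further: spheroids exposed to agents for seven days before readout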;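 on viability, T/C: 100% = DMSO vehicle control viability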

Examples from the recorded data:
COMPOUND	VALUE_OBSERVED
C=CC(=O)N1CCN(c2nc(=O)n(-c3c(C)ccnc3C(C)C)c3nc(-c4c(O)cccc4F)c(F)cc23)C(C)C1 (centres undefined) + COc1c(OCCCN2CCOCC2)ccc2c3n(c(=NC(=O)c4cnc(N)nc4)nc12)CCN3	28.2%
CC1(C)CCC(Nc2ncc(C(F)(F)F)c(-c3c[nH]c4c(P(C)(C)=O)c(C#N)ccc34)n2)CN1 (centres undefined) + CC(Nc1ccc2c(c1)OCCn1cc(N3C(=O)OCC3C(F)F)nc1-2)C(N)=O	6.8%

# lookup: viability, T/C of Cn1nccc1Nc1nccc(-c2ccn(C(CO)c3ccc(Cl)c(F)c3)c(=O)c2)n1 (centres undefined) + Cc1nc(NC(=O)N2CCCC2C(N)=O)sc1-c1ccnc(C(C)(C)C(F)(F)F)c1
61.1%

What value of measured viability, T/C is listed for C[C@@H](NC(=O)c1ncnc(N)c1Cl)c1ncc(C(=O)Nc2cc(C(F)(F)F)c(Cl)cn2)s1 + Cc1nc(NC(=O)N2CCCC2C(N)=O)sc1-c1ccnc(C(C)(C)C(F)(F)F)c1 ?
85.3%

Please report the recorded viability, T/C for CC(Cn1ccc(-c2ccc(C#N)c(Cl)c2)n1)NC(=O)c1cc(C(C)O)[nH]n1 (centres undefined) + Cc1nc(NC(=O)N2CCCC2C(N)=O)sc1-c1ccnc(C(C)(C)C(F)(F)F)c1 .
61.5%

Could you tell me which viability, T/C is on file for CC(Cn1ccc(-c2ccc(C#N)c(Cl)c2)n1)NC(=O)c1cc(C(C)O)[nH]n1 (centres undefined) + CC(Nc1ccc2c(c1)OCCn1cc(N3C(=O)OCC3C(F)F)nc1-2)C(N)=O ?
69.9%

Name the reported viability, T/C value associated with the compound C[C@@H](NC(=O)c1ncnc(N)c1Cl)c1ncc(C(=O)Nc2cc(C(F)(F)F)c(Cl)cn2)s1 + COc1c(OCCCN2CCOCC2)ccc2c3n(c(=NC(=O)c4cnc(N)nc4)nc12)CCN3
36.3%

What value of viability, T/C has been reported for the following compound? C#Cc1c(F)ccc2cc(O)cc(-c3ncc4c(N5CC6CCC(C5)N6)nc(OCC56CCCN5CC(F)C6)nc4c3F)c12 (centres undefined) + Cc1nc(NC(=O)N2CCCC2C(N)=O)sc1-c1ccnc(C(C)(C)C(F)(F)F)c1
75.6%

Find the recorded viability, T/C belonging to Cn1nccc1Nc1nccc(-c2ccn(C(CO)c3ccc(Cl)c(F)c3)c(=O)c2)n1 (centres undefined) + CC(Nc1ccc2c(c1)OCCn1cc(N3C(=O)OCC3C(F)F)nc1-2)C(N)=O and report it.
82.7%

Which viability, T/C is listed for C=CC(=O)N1CCN(c2nc(=O)n(-c3c(C)ccnc3C(C)C)c3nc(-c4c(O)cccc4F)c(F)cc23)C(C)C1 (centres undefined) + CC(Nc1ncnc2nc[nH]c12)c1cc2cccc(Cl)c2c(=O)n1-c1ccccc1 ?
76.9%
